# STUDY TARGET: MARK3 (human) (UniProt P27448)
# Sequence (P27448 whole entry, looked up): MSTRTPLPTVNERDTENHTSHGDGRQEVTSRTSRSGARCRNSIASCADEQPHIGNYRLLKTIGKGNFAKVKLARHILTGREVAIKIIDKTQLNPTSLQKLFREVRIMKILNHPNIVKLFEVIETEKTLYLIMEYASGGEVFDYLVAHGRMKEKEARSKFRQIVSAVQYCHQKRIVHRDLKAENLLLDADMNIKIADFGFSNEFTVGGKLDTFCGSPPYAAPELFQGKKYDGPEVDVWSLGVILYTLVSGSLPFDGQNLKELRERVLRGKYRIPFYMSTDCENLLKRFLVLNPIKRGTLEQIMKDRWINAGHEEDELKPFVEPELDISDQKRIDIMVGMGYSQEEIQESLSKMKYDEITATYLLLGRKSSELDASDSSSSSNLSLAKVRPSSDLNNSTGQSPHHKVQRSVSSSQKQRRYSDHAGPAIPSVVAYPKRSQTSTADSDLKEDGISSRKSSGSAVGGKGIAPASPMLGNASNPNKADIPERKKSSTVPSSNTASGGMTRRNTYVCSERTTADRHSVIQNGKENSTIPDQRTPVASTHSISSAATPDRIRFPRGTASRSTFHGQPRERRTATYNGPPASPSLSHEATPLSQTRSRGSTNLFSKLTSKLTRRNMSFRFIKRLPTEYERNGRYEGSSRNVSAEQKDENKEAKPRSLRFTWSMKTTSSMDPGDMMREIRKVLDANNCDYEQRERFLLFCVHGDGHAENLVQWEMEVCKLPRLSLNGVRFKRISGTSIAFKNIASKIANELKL
# TEST PROTOCOL: KINOMEscan competition binding
# MEASUREMENT CONTEXT: compound 10.0 µM
For each of the molecules below, state its kinase still bound, per cent of control.
Answer format: number, then unit.

The following molecules have reported results that may help.
- MOLECULE: "C=CC(=O)Nc1cc(NC(=O)c2ccc(C)c(NC(=O)c3ccno3)c2)cc(C(F)(F)F)c1"
  EXPERIMENTAL VALUE: "67%"
- MOLECULE: "Cc1ccc2nc(NCCN)c3ncc(C)n3c2c1"
  EXPERIMENTAL VALUE: "100%"
- MOLECULE: "O=C(O)c1ccc(Nc2ncc3c(n2)-c2ccc(Cl)cc2C(c2c(F)cccc2F)=NC3)cc1"
  EXPERIMENTAL VALUE: "100%"
- MOLECULE: "CCC(=O)N1CCN(c2ccc(-n3c(=O)ccc4cnc5ccc(-c6cnc7ccccc7c6)cc5c43)cc2C(F)(F)F)CC1"
  EXPERIMENTAL VALUE: "100%"
- MOLECULE: "CCN1CCN(Cc2ccc(Nc3ncc4c(n3)N(C)c3ccccc3C(=O)N4C)cc2C(F)(F)F)CC1"
  EXPERIMENTAL VALUE: "11%"
- MOLECULE: "OCCCNc1cc(-c2ccnc(Nc3cccc(Cl)c3)n2)ccn1"
  EXPERIMENTAL VALUE: "100%"

Provide each entry's kinase still bound, per cent of control from the list below.
1. COc1cc(C(=O)NC2CCN(C)CC2)ccc1Nc1ncc2c(n1)N(C1CCCC1)C(C)CC(=O)N2C (centres undefined)
2. CCCS(=O)(=O)Nc1ccc(F)c(C(=O)c2c[nH]c3ncc(-c4ccc(Cl)cc4)cc23)c1F
3. COc1cc(C(=O)NC2CCN(C)CC2)ccc1Nc1ncc2c(n1)N(C1CCCC1)CCC(=O)N2C(C)C

1. 100%
2. 61%
3. 100%
